experimentSummary: Cell viability assay (Cell Counting Kit-8);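 also: PC12 cells in 96-well plates, WST-8 turned into formazan by cellular dehydrogenases, absorbance read at 450 nm after 2 h with the reagent, signal proportional to living cell number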
Type: cell-based
measurementParameters: Aβ 5 μM + small peptide 0.5 μM; % PC12 cell viability compared to untreated control
Ends that are not written are not given here.
Please assign Criterion not met whenever viability is at or above 90%, and Criterion met whenever it is below.

Below, 3 substances whose answers are already recorded.
{"columns": ["substance", "groupLabel"],
 "data": [
  ["HWKAEFHR [NBP-801]", "Criterion not met"],
  ["SSYMVHWK [NBP-810]", "Criterion not met"],
  ["SYMVHW [NBP-611, SYMVHW]", "Criterion met"]
]}

As a next step, examine the substance that follows.
### Prompt A record lists EFHRWSSYM [NBP-905] . Is its viability below 90%?
### Response Criterion not met
